Ref: PubChem BioAssay AID248

System: L1210 leukemia ip in BDF1 mice, survival T/C
Assay: NCI In Vivo Anticancer Drug Screen. Data for tumor model L1210 Leukemia (intraperitoneal) in B6D2F1 (BDF1) mice
Details: endpoint: mean survival time; dose: 400.0 mg/kg/injection; schedule: Q01DX001 (ip); vehicle: acetone; higher = longer survival
Toxic doses and inconclusive results are not listed.
Recorded measurements of T/C, one per entry
QUANTITY KIND: T/C

{"MOLECULE": "Ic1ccccc1C[N+]12CN3CN(CN(C3)C1)C2", "QUANTITY KIND": "T/C", "OBSERVED MEASUREMENT": "94 % of control"}
{"MOLECULE": "O=S(=O)(/C=C/c1ccccc1)c1ccc2ccccc2c1", "QUANTITY KIND": "T/C", "OBSERVED MEASUREMENT": "90 % of control"}
{"MOLECULE": "COc1ccc(C2CCCN(C)O2)cc1 (stereo not given)", "QUANTITY KIND": "T/C", "OBSERVED MEASUREMENT": "98 % of control"}
{"MOLECULE": "CCCCCCCCCCCCCCCCNC(=S)NC1CCCCC1", "QUANTITY KIND": "T/C", "OBSERVED MEASUREMENT": "91 % of control"}
{"MOLECULE": "C1=CCC2OC2C1 (stereo not given)", "QUANTITY KIND": "T/C", "OBSERVED MEASUREMENT": "94 % of control"}

* * *

Test system: L1210 leukemia ip in BDF1 mice, survival T/C
Assay: NCI In Vivo Anticancer Drug Screen. Data for tumor model L1210 Leukemia (intraperitoneal) in B6D2F1 (BDF1) mice
Conditions: endpoint: mean survival time; dose: 50.0 mg/kg/injection; schedule: Q01DX001 (ip); vehicle: other
Toxic doses and inconclusive results are not listed. Cut-off read from the data, not from the text of the source: active = T/C of 150% or more; inactive = T/C below 125%.
Labels: true (1) = active, false (0) = inactive

{"COMPOUND": "CNC(=O)OCCOC(=O)c1ccc(OC(=O)NC)cc1", "ASSAYED TARGET": "L1210 leukemia ip in BDF1 mice, survival T/C", "ASSIGNED LABEL": "false (0)"}
{"COMPOUND": "Nc1ncnc2c1ccn2C1CCC(CO)C1 (centres undefined)", "ASSAYED TARGET": "L1210 leukemia ip in BDF1 mice, survival T/C", "ASSIGNED LABEL": "false (0)"}
{"COMPOUND": "Nc1cncc2ncc(-c3ccc(Cl)cc3)nc12", "ASSAYED TARGET": "L1210 leukemia ip in BDF1 mice, survival T/C", "ASSIGNED LABEL": "false (0)"}
{"COMPOUND": "CC1(C)CCC(NC(=O)N(CCF)N=O)CC1", "ASSAYED TARGET": "L1210 leukemia ip in BDF1 mice, survival T/C", "ASSIGNED LABEL": "true (1)"}

* * *

Recorded measurements of T/C, one per entry
Tested on: L1210 leukemia ip in BDF1 mice, survival T/C
Test: NCI In Vivo Anticancer Drug Screen. Data for tumor model L1210 Leukemia (intraperitoneal) in B6D2F1 (BDF1) mice
Settings: endpoint: mean survival time; dose: 100.0 mg/kg/injection; schedule: Q01DX009 (ip); vehicle: saline with Tween-80; higher = longer survival
Inconclusive results and toxic doses are left out.

{"COMPOUND": "O=C(O)c1ccccc1CCl", "ASSAYED TARGET": "L1210 leukemia ip in BDF1 mice, survival T/C", "T/C": "101 % of control"}
{"COMPOUND": "CCc1noc(CC)c1CC1=C2CCC3(C)CCC(C)(C)CC3C2(C)CCC1=O (configuration not stated)", "ASSAYED TARGET": "L1210 leukemia ip in BDF1 mice, survival T/C", "T/C": "93 % of control"}
{"COMPOUND": "Fc1nc2nc(C(F)(F)F)[nH]c2nc1F", "ASSAYED TARGET": "L1210 leukemia ip in BDF1 mice, survival T/C", "T/C": "95 % of control"}
{"COMPOUND": "c1cc(C2CCCCC2)ccc1-c1ccc(C2CCCCC2)cc1", "ASSAYED TARGET": "L1210 leukemia ip in BDF1 mice, survival T/C", "T/C": "94 % of control"}
{"COMPOUND": "F[Si](c1cccc2ccccc12)(c1cccc2ccccc12)c1cccc2ccccc12", "ASSAYED TARGET": "L1210 leukemia ip in BDF1 mice, survival T/C", "T/C": "93 % of control"}
{"COMPOUND": "CCCc1cc(CCC)n2nc(N)nc2n1", "ASSAYED TARGET": "L1210 leukemia ip in BDF1 mice, survival T/C", "T/C": "98 % of control"}
{"COMPOUND": "Cc1ccc(Cl)cc1NC(=O)OCCCl", "ASSAYED TARGET": "L1210 leukemia ip in BDF1 mice, survival T/C", "T/C": "95 % of control"}
{"COMPOUND": "COc1ccc(Cl)cc1", "ASSAYED TARGET": "L1210 leukemia ip in BDF1 mice, survival T/C", "T/C": "92 % of control"}
{"COMPOUND": "C/C(=N/O)c1ccc(O)cc1", "ASSAYED TARGET": "L1210 leukemia ip in BDF1 mice, survival T/C", "T/C": "103 % of control"}
{"COMPOUND": "O=[N+]([O-])c1cccc(SNc2cccc(Cl)c2)c1", "ASSAYED TARGET": "L1210 leukemia ip in BDF1 mice, survival T/C", "T/C": "98 % of control"}
{"COMPOUND": "O=C(O)C(c1cccs1)c1cccs1", "ASSAYED TARGET": "L1210 leukemia ip in BDF1 mice, survival T/C", "T/C": "102 % of control"}
{"COMPOUND": "COc1ccc(C2C3C=CC(C3)C2C(=O)O)cc1 (configuration not stated)", "ASSAYED TARGET": "L1210 leukemia ip in BDF1 mice, survival T/C", "T/C": "97 % of control"}
{"COMPOUND": "O=C(Nc1ccc(Cl)c([N+](=O)[O-])c1)OCCOc1ccccc1", "ASSAYED TARGET": "L1210 leukemia ip in BDF1 mice, survival T/C", "T/C": "101 % of control"}
{"COMPOUND": "CC(C)C/C=C/C1CCCCC1 (tested in a mixture with another compound)", "ASSAYED TARGET": "L1210 leukemia ip in BDF1 mice, survival T/C", "T/C": "93 % of control"}
{"COMPOUND": "O=C1c2ccccc2C(=O)N1CNc1cccc(Cl)c1", "ASSAYED TARGET": "L1210 leukemia ip in BDF1 mice, survival T/C", "T/C": "88 % of control"}
{"COMPOUND": "c1ccc2cc3c(cc2c1)Nc1cc2ccccc2cc1N3", "ASSAYED TARGET": "L1210 leukemia ip in BDF1 mice, survival T/C", "T/C": "93 % of control"}
{"COMPOUND": "COC(=O)/C(Br)=C\\c1ccc(-c2ccccc2)cc1", "ASSAYED TARGET": "L1210 leukemia ip in BDF1 mice, survival T/C", "T/C": "93 % of control"}
{"COMPOUND": "C/C(CC(O)(C(F)(F)Cl)C(F)(F)Cl)=N\\O", "ASSAYED TARGET": "L1210 leukemia ip in BDF1 mice, survival T/C", "T/C": "92 % of control"}
{"COMPOUND": "CCOP(=O)(OCC)C(=Cc1ccccc1)P(=O)(OCC)OCC", "ASSAYED TARGET": "L1210 leukemia ip in BDF1 mice, survival T/C", "T/C": "107 % of control"}
{"COMPOUND": "CS(=O)(=O)C(=Cc1ccccc1Cl)S(C)(=O)=O", "ASSAYED TARGET": "L1210 leukemia ip in BDF1 mice, survival T/C", "T/C": "92 % of control"}
{"COMPOUND": "CCCNC(=O)Nc1cccc(Cl)c1C", "ASSAYED TARGET": "L1210 leukemia ip in BDF1 mice, survival T/C", "T/C": "102 % of control"}
{"COMPOUND": "Ic1cccc(Oc2ccccc2)c1", "ASSAYED TARGET": "L1210 leukemia ip in BDF1 mice, survival T/C", "T/C": "114 % of control"}
{"COMPOUND": "CCCCCCCCCCCCOC(N)=O", "ASSAYED TARGET": "L1210 leukemia ip in BDF1 mice, survival T/C", "T/C": "101 % of control"}
{"COMPOUND": "FC1(F)SC2c3cccc4cccc(c34)C2C1(F)F (configuration not stated)", "ASSAYED TARGET": "L1210 leukemia ip in BDF1 mice, survival T/C", "T/C": "102 % of control"}
{"COMPOUND": "CCCCOCN1C(=O)NC(c2ccccc2)(c2ccccc2)C1=O", "ASSAYED TARGET": "L1210 leukemia ip in BDF1 mice, survival T/C", "T/C": "94 % of control"}
{"COMPOUND": "CC(C)=CCc1cccc(C)c1", "ASSAYED TARGET": "L1210 leukemia ip in BDF1 mice, survival T/C", "T/C": "98 % of control"}
{"COMPOUND": "CCOC(=O)CCC(C(=O)OCC)C(=O)OCC", "ASSAYED TARGET": "L1210 leukemia ip in BDF1 mice, survival T/C", "T/C": "86 % of control"}
